Hey, just so you know, these numbers are from ChEMBL document CHEMBL3585348.

List of IC50 values.
assay: Cytotoxicity against human BEAS2B cells assessed as cell viability after 48 hrs by MTS assay; type: cell-based; conditions: BEAS-2B
# number only, unit µM dropped from output

As a guide, the following entries are already answered.
Tell me IC50 reported for CC1=C[C@@H]2/C=C/C[C@H](C)/C=C(\C)C(=O)[C@@H](O)CCC(=O)[C@]23C(=O)N[C@@H](Cc2c[nH]c4ccccc24)[C@@H]3[C@@H]1C 16

Please report the measured IC50 for C/C1=C\[C@@H](C)C/C=C/[C@H]2C=C(CO)[C@@H](C)[C@H]3[C@H](Cc4c[nH]c5ccccc45)NC(=O)[C@]32C(=O)/C=C/C(=O)[C@@H]1O 3.34

Dear colleague, please send me the reported IC50 for CC(=O)O[C@H]1C(=O)[C@@]2(C)[C@H]([C@H](OC(=O)c3ccccc3)[C@]3(O)C[C@H](OC(=O)[C@H](O)[C@@H](NC(=O)c4ccccc4)c4ccccc4)C(C)=C1C3(C)C)[C@]1(OC(C)=O)CO[C@@H]1C[C@@H]2O [PACLITAXEL] when you can. 0.58

***
Give me measured IC50, please, for this compound: COC(=O)CCC(=O)[C@@]12C(=O)N[C@@H](Cc3c[nH]c4ccccc34)[C@@H]1[C@H](C)[C@@]1(C)O[C@H]1[C@@H]2/C=C/CC(C)/C=C(\C)C=O (stereo not given in full) 5.68

----------
experiment: Cytotoxicity against human BEAS2B cells assessed as cell viability after 48 hrs by MTS assay; type: cell-based; details: BEAS-2B
result_type: pIC50
Quick note: pIC50 means taking -log10 of the concentration in moles per liter.

Note pIC50 for the molecule shown: C/C(=C\C(C)C/C=C/[C@H]1[C@@H]2O[C@]2(C)[C@@H](C)[C@H]2[C@H](Cc3c[nH]c4ccccc34)NC(=O)[C@]21C(=O)CCCO)CO (stereo not given in full) 4.64

Continuing:
Given C/C(C=O)=C\C(C)C/C=C/[C@H]1[C@@H]2O[C@]2(C)[C@@H](C)[C@H]2[C@H](Cc3c[nH]c4ccccc34)NC(=O)[C@]21C(=O)CCCO (stereo not given in full) , respond with its pIC50. 4.81

Quote pIC50 reported for C/C1=C\[C@@H](C)C/C=C/[C@H]2[C@H](O)[C@@]3(C)O[C@@]4(Cc5c[nH]c6ccccc56)NC(=O)[C@]2(C(=O)CCC(=O)C1=O)[C@H]4[C@@H]3C please. 4.78

----------
test system: SW480; assay: Cytotoxicity against human SW480 cells assessed as cell viability after 48 hrs by MTS assay; assay type: functional, cell-based; conditions: SW480, 48 h
pIC50: −log10 of the molar value.
Some compounds, each annotated with its measured pIC50.

Below, each entry is followed by its recorded pIC50 result.
Provide measured pIC50 value, entry: CC1=C[C@@H]2/C=C/C[C@H](C)/C=C(\C)C(=O)[C@@H](O)CCC(=O)[C@]23C(=O)N[C@@H](Cc2c[nH]c4ccccc24)[C@@H]3[C@@H]1C 4.69

Give a short answer stating reported pIC50 for C/C(=C\C(C)C/C=C/[C@H]1[C@@H]2O[C@]2(C)[C@@H](C)[C@H]2[C@H](Cc3c[nH]c4ccccc34)NC(=O)[C@]21C(=O)CCCO)CO (stereo not given in full) . < 4.40

Please report the measured pIC50 for CC1=C[C@@H]2/C=C/C[C@H](C)/C=C(\C)[C@@H](O)[C@@H](O)CCC(=O)[C@]23C(=O)N[C@@H](Cc2c[nH]c4ccccc24)[C@@H]3[C@@H]1C < 4.40

Please report pIC50 for the following compound: C/C1=C\[C@@H](C)C/C=C/[C@H]2C=C(CO)[C@@H](C)[C@H]3[C@H](Cc4c[nH]c5ccccc45)NC(=O)[C@]32C(=O)CCC(=O)C1 < 4.40

Kindly review the next compound as well.
Could you please provide reported pIC50 for C/C(C=O)=C\C(C)C/C=C/[C@H]1[C@@H]2O[C@]2(C)[C@@H](C)[C@H]2[C@H](Cc3c[nH]c4ccccc34)NC(=O)[C@]21C(=O)CCC(=O)O (stereo not given in full) ? Thanks! < 4.40
